- Measured target: ~100 representative kinases (Homo sapiens, UniProt Q13557)
- Construct: Recombinant protein kinase domains with a concentration of 2 μM
- Sequence (Q13557 whole entry, the tested form may be a part): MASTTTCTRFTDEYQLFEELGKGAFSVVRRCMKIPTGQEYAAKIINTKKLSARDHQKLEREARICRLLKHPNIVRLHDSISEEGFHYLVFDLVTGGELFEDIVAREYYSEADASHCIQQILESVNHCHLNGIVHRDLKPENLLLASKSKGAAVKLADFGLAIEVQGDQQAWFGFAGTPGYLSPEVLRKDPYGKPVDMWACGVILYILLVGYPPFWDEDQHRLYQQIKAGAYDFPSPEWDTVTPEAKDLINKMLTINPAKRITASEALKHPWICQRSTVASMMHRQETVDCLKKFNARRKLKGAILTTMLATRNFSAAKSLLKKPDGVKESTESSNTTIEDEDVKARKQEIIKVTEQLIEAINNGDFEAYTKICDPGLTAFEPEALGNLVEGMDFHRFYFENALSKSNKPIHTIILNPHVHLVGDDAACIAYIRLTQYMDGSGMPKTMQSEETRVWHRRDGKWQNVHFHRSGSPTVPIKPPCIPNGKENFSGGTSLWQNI
- Assay method text: DSF 100 kinase selectivity screen;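 also: compound tested at 20 µM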
- Type: binding
- Test context: Protein CAMK2D; average of three replicates
Quantity name: dTm (K)
Could you give me the number in K? Just the number is fine.

*Q* For CC(C)(C)c1cc(NC(=O)Nc2cccc(-c3c[nH]c4ncnc(N5CCOCC5)c34)c2)n(-c2ccc3ncccc3c2)n1 [Compound 28] , what is its reported dTm?
*A* 0.51

*Q* For O=C(Nc1cccc(-c2c[nH]c3ncnc(N4CCOCC4)c23)c1)C1(C(=O)Nc2ccc(F)c(Br)c2)CC1 [Compound 19] , what is its reported dTm?
*A* 1.25

*Q* For COc1cc(S(C)(=O)=O)ccc1Nc1nc(N(C)C)c2c(Cl)c[nH]c2n1 [Compound 37] , what is its reported dTm?
*A* 0.41

*Q* For O=C(Nc1cc(F)cc(Br)c1)C1(C(=O)Nc2cccc(-c3c[nH]c4ncnc(N5CCOCC5)c34)c2)CC1 [Compound 27] , what is its reported dTm?
*A* 0.42

*Q* For CCc1ccc(NC(=O)C2(C(=O)Nc3cccc(-c4c[nH]c5ncnc(N6CCOCC6)c45)c3)CC2)cc1 [Compound 15] , what is its reported dTm?
*A* 0.37

----------
- Measured target: ~100 representative kinases (Homo sapiens)
- Construct: Recombinant protein kinase domains with a concentration of 2 μM
- Assay method text: DSF 100 kinase selectivity screen;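 also: compound tested at 20 µM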
- Type: binding
- Test context: Protein BMPR2; average of three replicates
Quantity name: dTm (K)
Could you give me the number in K? Just the number is fine.

*Q* # returns recorded dTm (system: ~100 representative kinases (Homo sapiens)) for `Cc1cc(NC(=O)C2(C(=O)Nc3cccc(-c4c[nH]c5ncnc(N6CCOCC6)c45)c3)CC2)ccc1F`
*A* 1.32

*Q* # returns recorded dTm (system: ~100 representative kinases (Homo sapiens)) for `Cc1ccc(NC(=O)C2(C(=O)Nc3cccc(-c4c[nH]c5ncnc(N6CCOCC6)c45)c3)CC2)cc1`
*A* 1.10

*Q* # returns recorded dTm (system: ~100 representative kinases (Homo sapiens)) for `CCSc1nc(NC)c2c(-c3cccc(NC(=O)Nc4cc(C(C)(C)C)nn4-c4ccc(C)cc4)c3)c[nH]c2n1`
*A* 0.45

*Q* # returns recorded dTm (system: ~100 representative kinases (Homo sapiens)) for `CC(=O)N1CCN(c2nc(Cl)nc3[nH]cc(-c4cccc(NC(=O)Nc5cc(C(C)(C)C)nn5-c5ccc(C)cc5)c4)c23)CC1`
*A* 0.38

*Q* # returns recorded dTm (system: ~100 representative kinases (Homo sapiens)) for `O=C(Nc1ccc(F)cc1)C1(C(=O)Nc2cccc(-c3c[nH]c4ncnc(N5CCOCC5)c34)c2)CC1`
*A* 0.92

*Q* # returns recorded dTm (system: ~100 representative kinases (Homo sapiens)) for `COc1ccc(NC(=O)C2(C(=O)Nc3cccc(-c4c[nH]c5ncnc(N6CCOCC6)c45)c3)CC2)cc1`
*A* 0.48

*Q* # returns recorded dTm (system: ~100 representative kinases (Homo sapiens)) for `Cc1ccc(-n2nc(C(C)(C)C)cc2NC(=O)Nc2cccc(-c3c[nH]c4nc(Cl)nc(N5CCOCC5)c34)c2)cc1`
*A* 0.19

*Q* # returns recorded dTm (system: ~100 representative kinases (Homo sapiens)) for `O=C(Nc1cccc(-c2c[nH]c3ncnc(N4CCOCC4)c23)c1)C1(C(=O)Nc2ccc(F)c(F)c2)CC1`
*A* 0.95

*Q* # returns recorded dTm (system: ~100 representative kinases (Homo sapiens)) for `O=C(Nc1cccc(-c2c[nH]c3ncnc(N4CCOCC4)c23)c1)C1(C(=O)Nc2ccc(F)cc2F)CC1`
*A* 0.82

*Q* # returns recorded dTm (system: ~100 representative kinases (Homo sapiens)) for `COc1cc(C(=O)N2CCOCC2)c(F)cc1Nc1nc(N(C)C)c2c(Cl)c[nH]c2n1`
*A* 0.63

*Q* # returns recorded dTm (system: ~100 representative kinases (Homo sapiens)) for `O=C(Nc1ccc(Cl)cc1)C1(C(=O)Nc2cccc(-c3c[nH]c4ncnc(N5CCOCC5)c34)c2)CC1`
*A* 1.26

*Q* # returns recorded dTm (system: ~100 representative kinases (Homo sapiens)) for `O=C(Nc1ccccc1)C1(C(=O)Nc2cccc(-c3c[nH]c4ncnc(N5CCOCC5)c34)c2)CC1`
*A* 1.02

*Q* # returns recorded dTm (system: ~100 representative kinases (Homo sapiens)) for `CCNc1nc(Nc2cc(F)c(C(=O)N3CCOCC3)cc2OC)ncc1C(F)(F)F`
*A* 1.37

*Q* # returns recorded dTm (system: ~100 representative kinases (Homo sapiens)) for `COc1cc(NC(=O)C2(C(=O)Nc3cccc(-c4c[nH]c5ncnc(N6CCOCC6)c45)c3)CC2)ccc1F`
*A* 0.78

*Q* # returns recorded dTm (system: ~100 representative kinases (Homo sapiens)) for `COc1cc(S(C)(=O)=O)ccc1Nc1nc(N(C)C)c2c(Cl)c[nH]c2n1`
*A* -0.0179

The measurements presented in this section are drawn from paper PMC12136037.
